Source listed as paper PMC11171218.

target: Clk1 (Homo sapiens); experiment: Z'-LYTE kinase inhibition assay, Clk1; format: biochemical; settings: read-out: Clk1 % Inh. At 1 µM
Sequence (P49759 whole entry): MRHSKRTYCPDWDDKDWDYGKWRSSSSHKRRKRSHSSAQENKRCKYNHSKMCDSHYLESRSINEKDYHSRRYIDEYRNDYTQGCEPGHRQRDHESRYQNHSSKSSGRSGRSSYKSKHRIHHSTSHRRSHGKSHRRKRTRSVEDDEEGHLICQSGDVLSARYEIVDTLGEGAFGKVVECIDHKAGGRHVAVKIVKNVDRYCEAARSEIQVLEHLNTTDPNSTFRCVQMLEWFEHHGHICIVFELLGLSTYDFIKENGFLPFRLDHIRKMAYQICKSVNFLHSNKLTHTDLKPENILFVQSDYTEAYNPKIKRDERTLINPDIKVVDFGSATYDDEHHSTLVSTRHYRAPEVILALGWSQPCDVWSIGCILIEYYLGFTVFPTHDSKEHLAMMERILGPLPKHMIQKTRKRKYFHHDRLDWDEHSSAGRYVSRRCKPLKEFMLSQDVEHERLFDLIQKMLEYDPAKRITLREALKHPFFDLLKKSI
Would you please tag the item true when its inhibition at 1 µM is 50% or above, and false when it is below?

[[record]]
smiles = "COc1cccc(CNC(=O)c2cc3cc(O)ccc3s2)c1"
tested_on = "Clk1 (Homo sapiens)"
class = "true"

[[record]]
smiles = "COc1ccc(CNC(=O)c2cc3cc(O)ccc3s2)c(OC)c1"
tested_on = "Clk1 (Homo sapiens)"
class = "false"

[[record]]
smiles = "Cc1cccc(CNC(=O)c2cc3cc(O)ccc3s2)c1"
tested_on = "Clk1 (Homo sapiens)"
class = "true"

[[record]]
smiles = "O=C(NCc1cc(Cl)cc(Cl)c1)c1cc2cc(O)ccc2s1"
tested_on = "Clk1 (Homo sapiens)"
class = "true"

[[record]]
smiles = "O=C(c1cc2cc(O)ccc2s1)N1Cc2ccc(Cl)cc2C1"
tested_on = "Clk1 (Homo sapiens)"
class = "true"

[[record]]
smiles = "COc1ccc(CNC(=O)c2cc3cc(O)ccc3s2)cc1"
tested_on = "Clk1 (Homo sapiens)"
class = "false"

[[record]]
smiles = "O=C(NCc1ccccc1Cl)c1cc2cc(O)ccc2s1"
tested_on = "Clk1 (Homo sapiens)"
class = "true"

[[record]]
smiles = "COc1cccc(CNC(=O)c2cc3cc(O)ccc3s2)c1OC"
tested_on = "Clk1 (Homo sapiens)"
class = "false"

[[record]]
smiles = "O=C(NCc1ccccc1)c1cc2cc(O)ccc2s1"
tested_on = "Clk1 (Homo sapiens)"
class = "true"

